PROTOCOL DESCRIPTION: Liver microsomal stability (human)
Format: in vitro ADME
STUDY CONDITIONS: human liver microsomes 0.5 mg/mL, 1 μM compound, NADPH-regenerating system, 37° C.

{"columns": ["SMILES REPRESENTATION", "Human Pred Cl. (L/H/kg)"],
 "data": [
  ["COC(=O)N[C@H](C(=O)N[C@@H](Cc1ccc(C#Cc2cnc(N3CC4CCC(C3)N4C3COC3)nc2)cc1)[C@H](CN(Cc1c(F)cc(-c2ccn(C(F)F)n2)cc1F)NC(=O)[C@@H](NC(=O)OC)C(C)(C)C(F)(F)F)OC(=O)c1cccnc1)C(C)(C)C(F)(F)F", "0.28 L/H/kg"],
  ["COC(=O)N[C@H](C(=O)N[C@@H](Cc1ccc(C#Cc2cnc(N3CC4CCC(C3)N4C3COC3)nc2)cc1)[C@H](CN(Cc1c(F)cc(-c2ccn(C(F)F)n2)cc1F)NC(=O)[C@@H](NC(=O)OC)C(C)(C)C(F)(F)F)OC(=O)CCCN1CCOCC1)C(C)(C)C(F)(F)F", "0.53 L/H/kg"],
  ["COC(=O)N[C@H](C(=O)N[C@@H](Cc1ccc(C#Cc2cnc(N3CC4CCC(C3)N4C3COC3)nc2)cc1)[C@H](CN(Cc1c(F)cc(-c2ccn(C(F)F)n2)cc1F)NC(=O)[C@@H](NC(=O)OC)C(C)(C)C(F)(F)F)OC=O)C(C)(C)C(F)(F)F", "0.37 L/H/kg"]
]}

###

Tested on: HIV-1 (IIIB) in MT-4 cells
PROTOCOL DESCRIPTION: MT-4 HIV Assay
Assay type: cell-based
STUDY CONDITIONS: Human immunodeficiency virus 1, MT4, 120 h; HIV-1 (IIIB) replication in MT-4 cells, 5 days incubation, Cell Titer Glo; read-out: EC50
pEC50: −log10 of the molar value.
Listed here: items and their measured pEC50.

{"columns": ["SMILES REPRESENTATION", "TARGET", "pEC50"],
 "data": [
  ["COC(=O)N[C@H](C(=O)N[C@@H](Cc1ccc(C#Cc2cnc(N3CC4CCC(C3)N4C3COC3)nc2)cc1)[C@H](CN(Cc1c(F)cc(-c2ccn(C(F)F)n2)cc1F)NC(=O)[C@@H](NC(=O)OC)C(C)(C)C(F)(F)F)OC=O)C(C)(C)C(F)(F)F", "HIV-1 (IIIB) in MT-4 cells", 8.34],
  ["COC(=O)N[C@H](C(=O)N[C@@H](Cc1ccc(C#Cc2cnc(N3CC4CCC(C3)N4C3COC3)nc2)cc1)[C@H](CN(Cc1c(F)cc(-c2ccn(C(F)F)n2)cc1F)NC(=O)[C@@H](NC(=O)OC)C(C)(C)C(F)(F)F)OC(=O)c1ccccn1)C(C)(C)C(F)(F)F", "HIV-1 (IIIB) in MT-4 cells", 6.56],
  ["COC(=O)N[C@H](C(=O)N[C@@H](Cc1ccc(C#Cc2cnc(N3CC4CCC(C3)N4C3COC3)nc2)cc1)[C@H](CN(Cc1c(F)cc(-c2ccn(C(F)F)n2)cc1F)NC(=O)[C@@H](NC(=O)OC)C(C)(C)C(F)(F)F)OC(C)=O)C(C)(C)C(F)(F)F", "HIV-1 (IIIB) in MT-4 cells", 6.22],
  ["COC(=O)N[C@H](C(=O)N[C@@H](Cc1ccc(C#Cc2cnc(N3CC4CCC(C3)N4C3COC3)nc2)cc1)[C@H](CN(Cc1c(F)cc(-c2ccn(C(F)F)n2)cc1F)NC(=O)[C@@H](NC(=O)OC)C(C)(C)C(F)(F)F)OC(=O)[C@H](C(C)C)N(C)C)C(C)(C)C(F)(F)F", "HIV-1 (IIIB) in MT-4 cells", 5.24]
]}

###

PROTOCOL DESCRIPTION: Kinetic Solubility Analysis (CLND)
Type: physicochemical
STUDY CONDITIONS: PBS, 26 °C, pH 7.4, aqueous buffer, kinetic from dmso stock; read-out: Solubility, PBS, pH 7.4, RT
Listed here: items and their measured solubility at 24 h.

{"columns": ["COMPOUND", "solubility at 24 h"],
 "data": [
  ["COC(=O)N[C@H](C(=O)N[C@@H](Cc1ccc(C#Cc2cnc(N3CC4CCC(C3)N4C3COC3)nc2)cc1)[C@H](CN(Cc1c(F)cc(-c2ccn(C(F)F)n2)cc1F)NC(=O)[C@@H](NC(=O)OC)C(C)(C)C(F)(F)F)OC(=O)CCCN1CCOCC1)C(C)(C)C(F)(F)F", "< 1 µM"],
  ["COC(=O)N[C@H](C(=O)N[C@@H](Cc1ccc(C#Cc2cnc(N3CC4CCC(C3)N4C3COC3)nc2)cc1)[C@H](CN(Cc1c(F)cc(-c2ccn(C(F)F)n2)cc1F)NC(=O)[C@@H](NC(=O)OC)C(C)(C)C(F)(F)F)OC(=O)[C@@H](N)CCCCN)C(C)(C)C(F)(F)F", "6.8 µM"],
  ["COC(=O)N[C@H](C(=O)N[C@@H](Cc1ccc(C#Cc2cnc(N3CC4CCC(C3)N4C3COC3)nc2)cc1)[C@@H](O)CN(Cc1c(F)cc(-c2ccn(C(F)F)n2)cc1F)NC(=O)[C@@H](NC(=O)OC)C(C)(C)C(F)(F)F)C(C)(C)C(F)(F)F [Compound D, reference compound]", "< 1 µM"],
  ["COC(=O)N[C@H](C(=O)N[C@@H](Cc1ccc(C#Cc2cnc(N3CC4CCC(C3)N4C3COC3)nc2)cc1)[C@H](CN(Cc1c(F)cc(-c2ccn(C(F)F)n2)cc1F)NC(=O)[C@@H](NC(=O)OC)C(C)(C)C(F)(F)F)OC(=O)[C@H](C(C)C)N(C)C)C(C)(C)C(F)(F)F", "< 1 µM"],
  ["COC(=O)N[C@H](C(=O)N[C@@H](Cc1ccc(C#Cc2cnc(N3CC4CCC(C3)N4C3COC3)nc2)cc1)[C@H](CN(Cc1c(F)cc(-c2ccn(C(F)F)n2)cc1F)NC(=O)[C@@H](NC(=O)OC)C(C)(C)C(F)(F)F)OP(=O)(O)O)C(C)(C)C(F)(F)F", "84.6 µM"],
  ["COC(=O)N[C@H](C(=O)N[C@@H](Cc1ccc(C#Cc2cnc(N3CC4CCC(C3)N4C3COC3)nc2)cc1)[C@H](CN(Cc1c(F)cc(-c2ccn(C(F)F)n2)cc1F)NC(=O)[C@@H](NC(=O)OC)C(C)(C)C(F)(F)F)OC(=O)[C@@H](N)C(C)C)C(C)(C)C(F)(F)F", "< 1 µM"],
  ["COC(=O)N[C@H](C(=O)N[C@@H](Cc1ccc(C#Cc2cnc(N3CC4CCC(C3)N4C3COC3)nc2)cc1)[C@H](CN(Cc1c(F)cc(-c2ccn(C(F)F)n2)cc1F)NC(=O)[C@@H](NC(=O)OC)C(C)(C)C(F)(F)F)OC(=O)c1ccccn1)C(C)(C)C(F)(F)F", "< 1 µM"],
  ["COC(=O)N[C@H](C(=O)N[C@@H](Cc1ccc(C#Cc2cnc(N3CC4CCC(C3)N4C3COC3)nc2)cc1)[C@H](CN(Cc1c(F)cc(-c2ccn(C(F)F)n2)cc1F)NC(=O)[C@@H](NC(=O)OC)C(C)(C)C(F)(F)F)OC(=O)CN(C)C)C(C)(C)C(F)(F)F", "< 1 µM"],
  ["COC(=O)N[C@H](C(=O)N[C@@H](Cc1ccc(C#Cc2cnc(N3CC4CCC(C3)N4C3COC3)nc2)cc1)[C@H](CN(Cc1c(F)cc(-c2ccn(C(F)F)n2)cc1F)NC(=O)[C@@H](NC(=O)OC)C(C)(C)C(F)(F)F)OC(C)=O)C(C)(C)C(F)(F)F", "< 1 µM"],
  ["COC(=O)N[C@H](C(=O)N[C@@H](Cc1ccc(C#Cc2cnc(N3CC4CCC(C3)N4C3COC3)nc2)cc1)[C@H](CN(Cc1c(F)cc(-c2ccn(C(F)F)n2)cc1F)NC(=O)[C@@H](NC(=O)OC)C(C)(C)C(F)(F)F)OC(=O)c1cccnc1)C(C)(C)C(F)(F)F", "< 1 µM"],
  ["COC(=O)N[C@H](C(=O)N[C@@H](Cc1ccc(C#Cc2ccc(N3CC4CCC(C3)N4C3COC3)nc2)cc1)[C@H](CN(Cc1c(F)cc(-c2ccn(C(F)F)n2)cc1F)NC(=O)[C@@H](NC(=O)OC)C(C)(C)C(F)(F)F)OC(=O)OCOP(=O)(O)O)C(C)(C)C(F)(F)F", "< 1 µM"],
  ["COC(=O)N[C@H](C(=O)N[C@@H](Cc1ccc(C#Cc2cnc(N3CC4CCC(C3)N4C3COC3)nc2)cc1)[C@H](CN(Cc1c(F)cc(-c2ccn(C(F)F)n2)cc1F)NC(=O)[C@@H](NC(=O)OC)C(C)(C)C(F)(F)F)OC=O)C(C)(C)C(F)(F)F", "< 1 µM"]
]}

###

PROTOCOL DESCRIPTION: Liver microsomal stability (rat)
Assay type: in vitro ADME
STUDY CONDITIONS: rat liver microsomes 0.5 mg/mL, 1 μM compound, NADPH-regenerating system, 37° C.
Listed here: items and their measured Rat. Pred. Cl. (L/H/kg).
PARAMETER: Rat. Pred. Cl. (L/H/kg)

{"columns": ["COMPOUND", "BOUND OPERATOR", "RESULT NUMBER"],
 "data": [
  ["COC(=O)N[C@H](C(=O)N[C@@H](Cc1ccc(C#Cc2cnc(N3CC4CCC(C3)N4C3COC3)nc2)cc1)[C@H](CN(Cc1c(F)cc(-c2ccn(C(F)F)n2)cc1F)NC(=O)[C@@H](NC(=O)OC)C(C)(C)C(F)(F)F)OP(=O)(O)O)C(C)(C)C(F)(F)F [Example 12]", "=", 0.91],
  ["COC(=O)N[C@H](C(=O)N[C@@H](Cc1ccc(C#Cc2cnc(N3CC4CCC(C3)N4C3COC3)nc2)cc1)[C@H](CN(Cc1c(F)cc(-c2ccn(C(F)F)n2)cc1F)NC(=O)[C@@H](NC(=O)OC)C(C)(C)C(F)(F)F)OC(=O)c1ccccn1)C(C)(C)C(F)(F)F [Example 6]", "<", 0.4],
  ["COC(=O)N[C@H](C(=O)N[C@@H](Cc1ccc(C#Cc2cnc(N3CC4CCC(C3)N4C3COC3)nc2)cc1)[C@H](CN(Cc1c(F)cc(-c2ccn(C(F)F)n2)cc1F)NC(=O)[C@@H](NC(=O)OC)C(C)(C)C(F)(F)F)OC(=O)c1cccnc1)C(C)(C)C(F)(F)F [Example 5]", "=", 0.58],
  ["COC(=O)N[C@H](C(=O)N[C@@H](Cc1ccc(C#Cc2cnc(N3CC4CCC(C3)N4C3COC3)nc2)cc1)[C@H](CN(Cc1c(F)cc(-c2ccn(C(F)F)n2)cc1F)NC(=O)[C@@H](NC(=O)OC)C(C)(C)C(F)(F)F)OC(=O)CCCN1CCOCC1)C(C)(C)C(F)(F)F [Example 2]", "=", 0.84],
  ["COC(=O)N[C@H](C(=O)N[C@@H](Cc1ccc(C#Cc2cnc(N3CC4CCC(C3)N4C3COC3)nc2)cc1)[C@H](CN(Cc1c(F)cc(-c2ccn(C(F)F)n2)cc1F)NC(=O)[C@@H](NC(=O)OC)C(C)(C)C(F)(F)F)OC=O)C(C)(C)C(F)(F)F [Example 1]", "<", 0.4]
]}

Data origin: patent US11052087B2
